Would you kindly list second-order rate constant of inhibition for each of these binders?
Target system: T1, fXa (UniProt P00742 41-179; P00742 235-488)
T1 construct: also called factor Xa
T1 sequence (P00742 41-179 limits assumed, form in doubt, chain 1 of 2): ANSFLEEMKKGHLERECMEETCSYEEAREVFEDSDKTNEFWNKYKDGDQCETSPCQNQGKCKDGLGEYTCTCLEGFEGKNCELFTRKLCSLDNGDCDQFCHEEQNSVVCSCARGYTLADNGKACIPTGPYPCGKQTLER
T1 sequence (P00742 235-488 limits assumed, form in doubt, chain 2 of 2): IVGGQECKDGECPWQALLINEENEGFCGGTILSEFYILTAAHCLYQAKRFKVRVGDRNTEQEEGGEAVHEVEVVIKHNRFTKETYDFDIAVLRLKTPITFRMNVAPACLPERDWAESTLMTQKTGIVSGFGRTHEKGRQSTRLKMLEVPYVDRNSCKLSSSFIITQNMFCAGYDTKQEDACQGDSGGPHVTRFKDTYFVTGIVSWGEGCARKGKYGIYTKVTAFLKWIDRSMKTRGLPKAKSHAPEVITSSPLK
Assay name: pseudo-first-order inhibition kinetics, residual chromogenic activity (S2222)
Please answer in the form of a number followed by its unit of measurement.

Sample FL α1AT Pitts C232S P2QP1′K (other, E. coli, purified; also called 4.G4) SDPQGDAAQKTDTSHHDQDHPTFNKITPNLAEFAFSLYRQLAHQSNSTNIFFSPVSIATAFAMLSLGTKADTHDEILEGLNFNLTEIPEAQIHEGFQELLRTLNQPDSQLQLTTGNGLFLSEGLKLVDKFLEDVKKLYHSEAFTVNFGDTEEAKKQINDYVEKGTQGKIVDLVKELDRDTVFALVNYIFFKGKWERPFEVKDTEEEDFHVDQVTTVKVPMMKRLGMFNIQHSKKLSSWVLLMKYLGNATAIFFLPDEGKLQHLENELTHDIITKFLENEDRRSASLHLPKLSITGTYDLKSVLGQLGITKVFSNGADLSGVTEEAPLKLSKAVHKAVLTIDEKGTEAAGAMFLEAIQRKIPPEVKFNKPFVFLMIEQNTKSPLFMGKVVNPTQK ; second-order rate constant of inhibition observed: 1080 M⁻¹ s⁻¹

Sample FL α1AT Pitts C232S P2KP1′N (other, E. coli, purified; also called 3.B2; 2.H5) SDPQGDAAQKTDTSHHDQDHPTFNKITPNLAEFAFSLYRQLAHQSNSTNIFFSPVSIATAFAMLSLGTKADTHDEILEGLNFNLTEIPEAQIHEGFQELLRTLNQPDSQLQLTTGNGLFLSEGLKLVDKFLEDVKKLYHSEAFTVNFGDTEEAKKQINDYVEKGTQGKIVDLVKELDRDTVFALVNYIFFKGKWERPFEVKDTEEEDFHVDQVTTVKVPMMKRLGMFNIQHSKKLSSWVLLMKYLGNATAIFFLPDEGKLQHLENELTHDIITKFLENEDRRSASLHLPKLSITGTYDLKSVLGQLGITKVFSNGADLSGVTEEAPLKLSKAVHKAVLTIDEKGTEAAGAMFLEAIKRNIPPEVKFNKPFVFLMIEQNTKSPLFMGKVVNPTQK ; second-order rate constant of inhibition observed: 910 M⁻¹ s⁻¹

Sample FL α1AT Pitts C232S P2R (other, E. coli, purified; also called P2.F10; P2.G8) SDPQGDAAQKTDTSHHDQDHPTFNKITPNLAEFAFSLYRQLAHQSNSTNIFFSPVSIATAFAMLSLGTKADTHDEILEGLNFNLTEIPEAQIHEGFQELLRTLNQPDSQLQLTTGNGLFLSEGLKLVDKFLEDVKKLYHSEAFTVNFGDTEEAKKQINDYVEKGTQGKIVDLVKELDRDTVFALVNYIFFKGKWERPFEVKDTEEEDFHVDQVTTVKVPMMKRLGMFNIQHSKKLSSWVLLMKYLGNATAIFFLPDEGKLQHLENELTHDIITKFLENEDRRSASLHLPKLSITGTYDLKSVLGQLGITKVFSNGADLSGVTEEAPLKLSKAVHKAVLTIDEKGTEAAGAMFLEAIRRSIPPEVKFNKPFVFLMIEQNTKSPLFMGKVVNPTQK ; second-order rate constant of inhibition observed: 4790 M⁻¹ s⁻¹
